Listed here are compounds together with their documented Light fastness (% remaining).
Test: Light fastness of dye images, 17,000 lux fluorescent lamp, 7 days
Assay type: physicochemical
Settings: Table 1; 17,000 lux, 7 days; initial density 1.0, at λmax; polyvinyl butyral
Description: The heat transfer image-receiving materials on which recording had been made were then irradiated with light from a 17,000 lux fluorescent lamp for 7 days to examine the stability of the dyes. The heat transfer image-receiving materials were also stored at a temperature of 60° C. under dry conditions for 7 days to examine the fastness of the dyes to heat. […] For the evaluation of stability, percentage of the measurements to the initial value (1.0) were determined. […]

Consider the reported Light fastness (% remaining) for these compounds:
CCOC(=O)c1c(C)n2c(nc1=O)C(C#N)=C(c1ccccc1)C2=Nc1ccc(N(CC)CC)cc1NC(=O)OC [Dye 4]: 91%
CCN(CC)c1ccc(N=C2C(C#N)=C(c3ccccc3)c3nc(=O)ccn32)c(NC(C)=O)c1 [Dye 17]: 91%
CCOC(=O)c1c(C)n2c(nc1=O)C(C#N)=C(c1ccccc1)C2=Nc1ccc(N(CC)CCOc2ccc(OC)cc2)cc1 [Dye 3]: 92%

Next item in the queue.
Query: Reported Light fastness (% remaining) for CCOC(=O)c1cn2c(nc1=O)C(C#N)=C(c1ccccc1)C2=Nc1ccc(N(CC)CCOc2ccc(OC)cc2)cc1 [Dye 10] : what is it?
Reply: 93%
